- MEASURED TARGET: EB3 interactions with IP3R3-GFP (Homo sapiens)
- Sequence (Q9UPY8 whole entry): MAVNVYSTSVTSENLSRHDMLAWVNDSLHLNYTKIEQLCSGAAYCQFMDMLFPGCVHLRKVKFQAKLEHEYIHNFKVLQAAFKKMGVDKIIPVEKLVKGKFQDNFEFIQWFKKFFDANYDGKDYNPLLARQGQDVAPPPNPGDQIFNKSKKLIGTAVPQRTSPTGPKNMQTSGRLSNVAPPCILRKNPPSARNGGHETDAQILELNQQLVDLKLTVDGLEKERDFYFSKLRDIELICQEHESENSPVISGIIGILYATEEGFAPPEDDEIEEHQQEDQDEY
- ASSAY: Competitive binding: inhibition of EB3 interaction with IP3R3-GFP in vitro
- Assay type: biochemical
- APPLIED CONDITIONS: 250 nM
Starred links: 1 amine or outer side, 2 acyl side, 3 side chain; linkers in the order of their positions; H or OH if unused. Positions of bridges follow the written chain, without caps; N, C: chain ends. Non-standard residues stand in square brackets, D forms with d. Residues, ends and D or L forms follow the SMILES beside them. X2 = C[C@@](CCCCC=[*:3])(N[*:1])C(=O)[*:2]; Oic = O=C(O)[C@@H]1C[C@@H]2CCCC[C@@H]2N1; d(tBuAla) = CC(C)(C)C[C@@H](N)C(=O)O; dVal(3-OH) = CC(C)(O)[C@@H](N)C(=O)O; tBuAla = CC(C)(C)C[C@H](N)C(=O)O; R5 = C=CCCC[C@@](C)(N)C(=O)O; X1 = O=C(CC(O)CN[*:1])[*:2]; 4Amb = NCc1ccc(C(=O)O)cc1
Provide the recorded inhibition at 0.25 µM for the entries that follow.
Lab book: enter the figure in %, no units written.

(Q) Would you kindly share the measured inhibition at 0.25 µM for CC(C)(C)C[C@H](NC(=O)CC(O)CNC(=O)[C@@H]1C[C@@H]2CCCC[C@@H]2N1C(=O)[C@H](CC(C)(C)C)NC(=O)c1ccc(CNC(=O)[C@H](N)C(C)(C)O)cc1)C(=O)O (stereo partly shown) [compound 103] (H-[dVal(3-OH)][4Amb][tBuAla][Oic][X1][tBuAla]-OH) ?
(A) 12

(Q) Would you kindly share the measured inhibition at 0.25 µM for CC[C@H](C)[C@H](NC(=O)CC(O)CNC(=O)[C@@H]1[C@@H]2CCCC[C@@H]2CN1C(=O)[C@H](CC(C)(C)C)NC(=O)c1cccc(CNC(=O)[C@H](NC(=O)[C@@H](N)Cc2ccccc2)C(C)(C)O)c1)C(=O)O (stereo partly shown) ?
(A) 30

(Q) Would you kindly share the measured inhibition at 0.25 µM for CC[C@H](C)[C@H](NC(=O)[C@@H](NC(=O)[C@@H]1CCCN1C(=O)[C@@H](NC(=O)c1ccc(CNC(=O)[C@H](NC(=O)[C@@H](N)Cc2ccccc2)C(C)(C)O)cc1)[C@@H](C)CC)[C@@H](C)O)C(=O)O [compound 021] (H-F[dVal(3-OH)][4Amb]IPTI-OH) ?
(A) 35

(Q) Would you kindly share the measured inhibition at 0.25 µM for CC(C)(C)C[C@@H]1NC(=O)[C@](C)(NC(=O)c2ccc(CNC(=O)[C@H](N)C(C)(C)O)cc2)CCC/C=C\CCCC[C@@](C)(C(=O)N[C@H](CC(C)(C)C)C(=O)O)NC(=O)CC(O)CNC(=O)[C@@H]2C[C@@H]3CCCC[C@@H]3N2C1=O (stereo partly shown) [compound 108] (H-[dVal(3-OH)][4Amb][R5][tBuAla][Oic][X1][X2][d(tBuAla)]-OH; staple (Z) 3-7) ?
(A) 55
